# Tested on: DLD-1
# Assay info: NCI tumour cell line growth inhibition, 48 h
Active and inactive are the calls of the source. No stated cut-off is given here; in the data, active = GI50 up to about 1.1 µM and inactive = higher.
compounds and their reported GI50

// known answers, use as guide
Asked: State its GI50: `O=C(N[C@@H]1C=CCC[C@@H]1c1ccccc1)OCc1ccccc1`
Given back: 23.7 µM (inactive)

Asked: Please give measured GI50 of the following entry: `O=C(CC1=Nc2nnc(-c3nnc4n3C(=O)C(CC(=O)C3CC3)=N4)n2C1=O)C1CC1`
Given back: > 100 µM (inactive)

Asked: Output GI50 of CN(C)/N=C(/c1nc2ccc(Cl)cc2nc1O)C(O)c1ccc(C(O)/C(=N\N(C)C)c2nc3ccc(Cl)cc3nc2O)cc1 (configuration not stated)
Given back: > 100 µM (inactive)

Asked: Please give measured GI50 of the following entry: CCCOP1(=O)C=C(O)C(Cl)=C(C)C1 (configuration not stated)
Given back: > 100 µM (inactive)

Asked: Find the measured GI50 of `COC(=O)/C(=C/c1ccc(OC)cc1)C(C(=O)O)=C(C)C` and report it.
Given back: > 100 µM (inactive)

Next:
Asked: Report GI50, nothing else, for this compound: `CSc1nc2nc(C)c(C)nc2c(=O)[nH]1`
Given back: > 100 µM (inactive)

Asked: Write down GI50 measured for item `C/C(=N\NS(=O)(=O)c1ccc(C)cc1)c1ccc[n+]([O-])n1`
Given back: 50.1 µM (inactive)

Asked: Let me know recorded GI50 for O=C1NC2OCC(O)C(O1)C2O (configuration not stated) , thanks.
Given back: > 100 µM (inactive)

Asked: Return reported GI50. Input compound: `C/C(=N\NC(=O)c1cccnc1)c1cccc(/C(C)=N/NC(=O)c2cccnc2)n1`
Given back: 1.95 µM (inactive)

Asked: Note GI50 for the compound shown: `COC[n+]1cc2cc(OC)c(OC)cc2c2ccc3cc(OC)c(OC)cc3c21`
Given back: > 100 µM (inactive)

Asked: Return reported GI50. Input compound: `NCCn1ccc(NC(c2ccccc2)(c2ccccc2)c2ccccc2)nc1=O`
Given back: 63.1 µM (inactive)

Asked: Query GI50 for `O=Cc1ccc(-c2cccs2)s1`
Given back: > 63.1 µM (inactive)

Asked: Answer with the recorded GI50 for the compound listed here: `O=[PH](O)c1ccccn1`
Given back: > 100 µM (inactive)

Asked: Dear colleague, please send me the reported GI50 for `O/N=C\C(=N/O)Nc1ccc(Cc2ccc(NC(/C=N\O)=N/O)cc2)cc1` when you can.
Given back: 23.9 µM (inactive)

Asked: Supply recorded GI50 for `O=C1C=Cc2noc3cccc1c23` here.
Given back: 1.66 µM (inactive)

Asked: Identify GI50 associated with the compound `CC(=O)OCC(=O)[C@@]1(O)CC[C@H]2[C@@H]3C[C@H](C)C4=CC(=O)C=C[C@]4(C)[C@@]3(F)[C@@H](O)C[C@@]21C`
Given back: > 100 µM (inactive)

Asked: Fill in GI50 for record `O=C(/C=C/c1ccccc1O)c1ccc([N+](=O)[O-])cc1`
Given back: 12.9 µM (inactive)

Asked: Give GI50 for C[C@H](CCC1SC1(C)C)C1CCC2(C)C3=C(CC[C@]12C)[C@@]1(C)CC[C@H](O)C(C)(C)C1CC3 (some centres not stated)
Given back: > 100 µM (inactive)

Asked: For the compound C#CCN1C(=O)CN2C(Cl)(Cl)C2(c2ccccc2)c2cc(Cl)ccc21 (configuration not stated) , give its reported GI50.
Given back: 45.3 µM (inactive)

Asked: Check the records and state GI50 for COC(=O)/C(=N/Nc1cccc(Cl)c1)C(C(=O)C(=O)Nc1cccc(Cl)c1C)c1nc2ccccc2nc1C (configuration not stated)
Given back: 34.5 µM (inactive)

Asked: Item `CCOC(=O)C(=O)C=P(c1ccccc1)(c1ccccc1)c1ccccc1` : provide GI50
Given back: > 100 µM (inactive)

Asked: Could you please provide reported GI50 for `COc1ccc(OCC(C)(C)O)cc1` ? Thanks!
Given back: > 100 µM (inactive)
